Numbers sourced from patent US20020013478A1.

test system: Madin Darby canine kidney (MDCK) cells; assay: Cytotoxicity run with the influenza assay; assay type: cell-based; settings: Table II footnote i; read-out: Others IC50, against influenza A(H1N1)
pIC50: −log10 of the molar value.

- compound: "CC1Oc2c3c(c4c(-c5ccccc5)cc(=O)oc4c2C(O)C1C)OC(C)(C)C=C3 (single isomer, unassigned; (-)) [(−)-24]"
  targetOfAssay: "Madin Darby canine kidney (MDCK) cells"
  pIC50: "< 4.00"

###

test system: 2.2.15 cells; assay: Toxicity in 2.2.15 cells, neutral red dye uptake; assay type: cell-based, human; details: Table II; read-out: HBV IC50
pIC50: −log10 of the molar value.
observedProperty: pIC50

- compound: "CCCc1cc(=O)oc2c3c(c4c(c12)OC(C)(C)C=C4)OC(CC)C(C)C3=O (racemic) [(±)-15c]"
  observedValue: 3.82
- compound: "CCCc1cc(=O)oc2c3c(c4c(c12)OC(C)(C)C=C4)OC(C)C(C)C3=O (single isomer, unassigned; (-)) [(−)-7a]"
  observedValue: 4.07
- compound: "CCCc1cc(=O)oc2c3c(c4c(c12)OC(C)(C)C=C4)O[C@@H](C)[C@H](C)[C@@H]3O [(−)-calanolide B, (-)-Calanolide B]"
  observedValue: 3.00
- compound: "CCCc1cc(=O)oc2c3c(c4c(c12)OC(C)(C)C=C4)OC(C(C)C)C(C)C3=O (racemic) [(+)-15e]"
  observedValue: 4.07
- compound: "CCCc1cc(=O)oc2c3c(c4c(c12)OC(C)(C)C=C4)O[C@@H](C)[C@H](C)[C@H]3O [(−)-1, (-)-Calanolide A]"
  observedValue: 3.76
- compound: "CCCc1cc(=O)oc2c3c(c4c(c12)OC(C)(C)C=C4)OC(C)C(C)C3=O (racemic) [(±)-7a]"
  observedValue: 4.49

###

system: human foreskin fibroblast cells; assay: Toxicity run with the HCMV assay, human foreskin fibroblast cells; format: cell-based; conditions: Table II
observedProperty: HCMV IC50 (µg/mL)

- compound: "CCCc1cc(=O)oc2c3c(c4c(c12)OC(C)(C)C=C4)OC(C)C(C)C3=O (racemic) [(±)-7a]"
  targetOfAssay: "human foreskin fibroblast cells"
  comparisonOperator: "="
  observedValue: 19.8
- compound: "CCCc1cc(=O)oc2c3c(c4c(c12)OC(C)(C)C=C4)OC(C(C)C)C(C)C3=O (racemic) [(+)-15e]"
  targetOfAssay: "human foreskin fibroblast cells"
  comparisonOperator: "="
  observedValue: 75.3
- compound: "CCCc1cc(=O)oc2c3c(c4c(c12)OC(C)(C)C=C4)OCC(C)C3=O (racemic) [(±)-15f]"
  targetOfAssay: "human foreskin fibroblast cells"
  comparisonOperator: ">"
  observedValue: 100
- compound: "CCCc1cc(=O)oc2c3c(c4c(c12)OC(C)(C)C=C4)OC(C)C(C)C3=O (single isomer, unassigned; (-)) [(−)-7a]"
  targetOfAssay: "human foreskin fibroblast cells"
  comparisonOperator: "="
  observedValue: 11.9
- compound: "CCCc1cc(=O)oc2c3c(c4c(c12)OC(C)(C)CC4)OC(C)C(C)C3=O (single isomer, unassigned; (+)) [(+)-18a]"
  targetOfAssay: "human foreskin fibroblast cells"
  comparisonOperator: ">"
  observedValue: 100
- compound: "CCCc1cc(=O)oc2c3c(c4c(c12)OC(C)(C)CC4)OC(C)C(C)C3O (single isomer, unassigned; (-)) [(−)-23]"
  targetOfAssay: "human foreskin fibroblast cells"
  comparisonOperator: "="
  observedValue: 18.8
- compound: "CCCc1cc(=O)oc2c3c(c4c(c12)OC(C)(C)C=C4)O[C@@H](C)[C@H](C)[C@H]3O [(−)-1, (-)-Calanolide A]"
  targetOfAssay: "human foreskin fibroblast cells"
  comparisonOperator: "="
  observedValue: 80.3

###

test system: CEM-SS cells; experiment: CEM-SS MTT assay, cytotoxicity (Table I); assay type: cell-based, human
Listed compounds paired with reported IC50
observedProperty: IC50

- compound: "CCCc1cc(=O)oc2c3c(c4c(c12)OC(C)(C)C=C4)OC(C)C(C)C3=NOC (racemic) [(±)-19b]"
  observedProperty: "IC50"
  observedValue: "> 100 µM"
- compound: "CCCc1cc(=O)oc2c(C(=O)C(C)(C)C(C)O)c(O)c3c(c12)OC(C)(C)C=C3 (racemic) [(±)-14a]"
  observedProperty: "IC50"
  observedValue: "37 µM"
- compound: "CCCc1cc(=O)oc2c3c(c4c(c12)OC(C)(C)C=C4)OC(CC)C(C)C3O (racemic) [(±)-16f]"
  observedProperty: "IC50"
  observedValue: "17.7 µM"
- compound: "CCCc1cc(=O)oc2c3c(c4c(c12)OC(C)(C)C=C4)OC(C)C(C)C3=O (racemic) [(±)-7]"
  observedProperty: "IC50"
  observedValue: "19.1 µM"
- compound: "CCCc1cc(=O)oc2c3c(c4c(c12)OC(C)(C)C=C4)OC(CC)C(C)C3=O (racemic) [(±)-15c]"
  observedProperty: "IC50"
  observedValue: "6.8 µM"
- compound: "CCCc1cc(=O)oc2c3c(c4c(c12)OC(C)(C)C=C4)OC(C)C(C)(C)C3O (racemic) [(±)-16a]"
  observedProperty: "IC50"
  observedValue: "20.3 µM"
- compound: "CCCc1cc(=O)oc2c3c(c4c(c12)OC(C)(C)CC4)OC(C)C(C)C3=O (racemic) [(±)-18a]"
  observedProperty: "IC50"
  observedValue: "9.19 µM"
- compound: "CCCc1cc(=O)oc2c3c(c4c(c12)OC(C)(C)C=C4)OC(C)(C)C(C)C3O (racemic) [(±)-16d]"
  observedProperty: "IC50"
  observedValue: "21 µM"
- compound: "CCCc1cc(=O)oc2c3c(c4c(c12)OC(C)(C)C=C4)O[C@H](C)[C@@H](C)C3=NO (racemic) [(±)-19a]"
  observedProperty: "IC50"
  observedValue: "15.8 µM"
- compound: "CCCc1cc(=O)oc2c3c(c4c(c12)OC(C)(C)C=C4)OC(CC)C(C)C3O (racemic) [(±)-16g]"
  observedProperty: "IC50"
  observedValue: "11.6 µM"
- compound: "CCCc1cc(=O)oc2c3c(c4c(c12)OC(C)(C)C=C4)OC(CC)C(C)C3O (racemic) [(±)-16h]"
  observedProperty: "IC50"
  observedValue: "20.9 µM"
- compound: "CCCc1cc(=O)oc2c(C(=O)[C@H](C)[C@@H](C)OC(C)=O)c(O)c3c(c12)OC(C)(C)C=C3 [(+)-10]"
  observedProperty: "IC50"
  observedValue: "9.27 µM"
